FYI, the data here is from ChEMBL document CHEMBL1130125.

system: frog skin melanocortin receptor (Rana pipiens); assay: Relative potency compared to alpha MSH in a frog skin bioassay.
metric name: Relative potency
Give the figure only, with no unit attached.

I'd like to know its Relative potency. The molecule in question is CCCC[C@H](NC(C)=O)C(=O)N[C@H]1CC(=O)NCCCCC(C(N)=O)NC(=O)[C@H](Cc2c[nH]c3ccccc23)NC(=O)[C@H](CCCN=C(N)N)NC(=O)[C@@H]([C@H](C)c2ccccc2)NC(=O)[C@H](Cc2c[nH]cn2)NC1=O (single isomer, unassigned; 7)
0.006

Can you look up the measured Relative potency of `CCCC[C@H](NC(C)=O)C(=O)N[C@H]1CC(=O)NCCCC[C@H](C(N)=O)NC(=O)[C@H]([C@@H](C)c2c[nH]c3ccccc23)NC(=O)[C@H](CCCN=C(N)N)NC(=O)[C@@H](Cc2ccccc2)NC(=O)[C@H](Cc2c[nH]cn2)NC1=O` for me?
0.23

Can you look up the measured Relative potency of CCCC[C@H](NC(C)=O)C(=O)N[C@H]1CC(=O)NCCCCC(C(N)=O)NC(=O)[C@H](Cc2c[nH]c3ccccc23)NC(=O)[C@H](CCCN=C(N)N)NC(=O)[C@@H]([C@@H](C)c2ccccc2)NC(=O)[C@H](Cc2c[nH]cn2)NC1=O (single isomer, unassigned) for me?
0.05

Please give the measured Relative potency for this molecule: CCCC[C@H](NC(C)=O)C(=O)N[C@H]1CC(=O)NCCCCC(C(N)=O)NC(=O)C([C@H](C)c2c[nH]c3ccccc23)NC(=O)[C@H](CCCN=C(N)N)NC(=O)C(Cc2ccccc2)NC(=O)[C@H](Cc2c[nH]cn2)NC1=O (single isomer, unassigned; 10)
1.6

###

target: frog skin melanocortin receptor (Rana pipiens); experiment: Decrease in frog skin reflectivity ([…] activity).
metric name: pEC50
Please express pEC50 as -log10 of the molar concentration.

Can you share its pEC50? I mean this molecule: CCCC[C@H](NC(C)=O)C(=O)N[C@H]1CC(=O)NCCCCC(C(N)=O)NC(=O)[C@H](Cc2c[nH]c3ccccc23)NC(=O)[C@H](CCCN=C(N)N)NC(=O)[C@@H]([C@H](C)c2ccccc2)NC(=O)[C@H](Cc2c[nH]cn2)NC1=O (single isomer, unassigned; 5)
8.20

Given the entry CCCC[C@H](NC(C)=O)C(=O)N[C@H]1CC(=O)NCCCCC(C(N)=O)NC(=O)C([C@H](C)c2c[nH]c3ccccc23)NC(=O)[C@H](CCCN=C(N)N)NC(=O)C(Cc2ccccc2)NC(=O)[C@H](Cc2c[nH]cn2)NC1=O (single isomer, unassigned; 10) , report its measured pEC50.
10.22

# lookup: pEC50 of CCCC[C@H](NC(C)=O)C(=O)N[C@H]1CC(=O)NCCCCC(C(N)=O)NC(=O)[C@H](Cc2c[nH]c3ccccc23)NC(=O)[C@H](CCCN=C(N)N)NC(=O)[C@@H]([C@@H](C)c2ccccc2)NC(=O)[C@H](Cc2c[nH]cn2)NC1=O (single isomer, unassigned)
8.70

For the molecule `CCCC[C@H](NC(C)=O)C(=O)N[C@H]1CC(=O)NCCCC[C@@H](C(N)=O)NC(=O)[C@@H]2Cc3c([nH]c4ccccc34)CN2C(=O)[C@H](CCCNC(=N)N)NC(=O)[C@@H](Cc2ccccc2)NC(=O)[C@H](Cc2cnc[nH]2)NC1=O` , what pEC50 is on record?
8.48

Look up pEC50: CCCC[C@H](NC(C)=O)C(=O)N[C@H]1CC(=O)NCCCCC(C(N)=O)NC(=O)[C@H](Cc2c[nH]c3ccccc23)NC(=O)[C@H](CCCN=C(N)N)NC(=O)[C@@H]([C@H](C)c2ccccc2)NC(=O)[C@H](Cc2c[nH]cn2)NC1=O (single isomer, unassigned; 7)
7.78

Value lookup for pEC50; key = CCCC[C@H](NC(C)=O)C(=O)N[C@H]1CC(=O)NCCCCC(C(N)=O)NC(=O)C([C@H](C)c2c[nH]c3ccccc23)NC(=O)[C@H](CCCN=C(N)N)NC(=O)C(Cc2ccccc2)NC(=O)[C@H](Cc2c[nH]cn2)NC1=O (single isomer, unassigned; 11)
9.48

Quick one: pEC50 for `CCCC[C@H](NC(C)=O)C(=O)N[C@H]1CC(=O)NCCCC[C@@H](C(N)=O)NC(=O)[C@H]2Cc3c([nH]c4ccccc34)CN2C(=O)[C@H](CCCNC(=N)N)NC(=O)[C@@H](Cc2ccccc2)NC(=O)[C@H](Cc2cnc[nH]2)NC1=O` ?
9.00

Which value of pEC50 has been reported for CCCC[C@H](NC(C)=O)C(=O)N[C@H]1CC(=O)NCCCCC(C(N)=O)NC(=O)[C@H](Cc2c[nH]c3ccccc23)NC(=O)[C@H](CCCN=C(N)N)NC(=O)C([C@@H](C)c2ccccc2)NC(=O)[C@H](Cc2c[nH]cn2)NC1=O (single isomer, unassigned) in the records?
8.20

###

system: frog skin melanocortin receptor (Rana pipiens); assay: Relative potency compared to alpha MSH in a frog skin bioassay.
For each record, write down the corresponding Relative potency.
Form: value (number only, do not type unit).

GET /values?readout=Relative potency&item= CCCC[C@H](NC(C)=O)C(=O)N[C@H]1CC(=O)NCCCCC(C(N)=O)NC(=O)[C@H](Cc2c[nH]c3ccccc23)NC(=O)[C@H](CCCN=C(N)N)NC(=O)C([C@@H](C)c2ccccc2)NC(=O)[C@H](Cc2c[nH]cn2)NC1=O (single isomer, unassigned)
0.016

State the recorded Relative potency for this entry: CCCC[C@H](NC(C)=O)C(=O)N[C@H]1CC(=O)NCCCCC(C(N)=O)NC(=O)[C@H](Cc2c[nH]c3ccccc23)NC(=O)[C@H](CCCN=C(N)N)NC(=O)[C@@H]([C@H](C)c2ccccc2)NC(=O)[C@H](Cc2c[nH]cn2)NC1=O (single isomer, unassigned; 5)
0.016

Looking for the measured Relative potency of CCCC[C@H](NC(C)=O)C(=O)N[C@H]1CC(=O)NCCCCC(C(N)=O)NC(=O)C([C@H](C)c2c[nH]c3ccccc23)NC(=O)[C@H](CCCN=C(N)N)NC(=O)C(Cc2ccccc2)NC(=O)[C@H](Cc2c[nH]cn2)NC1=O (single isomer, unassigned; 11) , can you help?
0.3

Given CCCC[C@H](NC(C)=O)C(=O)N[C@H]1CC(=O)NCCCCC(C(N)=O)NC(=O)[C@H]([C@H](C)c2c[nH]c3ccccc23)NC(=O)[C@H](CCCN=C(N)N)NC(=O)C(Cc2ccccc2)NC(=O)[C@H](Cc2c[nH]cn2)NC1=O (single isomer, unassigned) , state its recorded Relative potency.
0.004
